Assay Target: Mutant B-Raf (V600E) enzyme (MT B-Raf) (Homo sapiens, UniProt P15056, V600E)
Sequence (P15056 whole entry V600E): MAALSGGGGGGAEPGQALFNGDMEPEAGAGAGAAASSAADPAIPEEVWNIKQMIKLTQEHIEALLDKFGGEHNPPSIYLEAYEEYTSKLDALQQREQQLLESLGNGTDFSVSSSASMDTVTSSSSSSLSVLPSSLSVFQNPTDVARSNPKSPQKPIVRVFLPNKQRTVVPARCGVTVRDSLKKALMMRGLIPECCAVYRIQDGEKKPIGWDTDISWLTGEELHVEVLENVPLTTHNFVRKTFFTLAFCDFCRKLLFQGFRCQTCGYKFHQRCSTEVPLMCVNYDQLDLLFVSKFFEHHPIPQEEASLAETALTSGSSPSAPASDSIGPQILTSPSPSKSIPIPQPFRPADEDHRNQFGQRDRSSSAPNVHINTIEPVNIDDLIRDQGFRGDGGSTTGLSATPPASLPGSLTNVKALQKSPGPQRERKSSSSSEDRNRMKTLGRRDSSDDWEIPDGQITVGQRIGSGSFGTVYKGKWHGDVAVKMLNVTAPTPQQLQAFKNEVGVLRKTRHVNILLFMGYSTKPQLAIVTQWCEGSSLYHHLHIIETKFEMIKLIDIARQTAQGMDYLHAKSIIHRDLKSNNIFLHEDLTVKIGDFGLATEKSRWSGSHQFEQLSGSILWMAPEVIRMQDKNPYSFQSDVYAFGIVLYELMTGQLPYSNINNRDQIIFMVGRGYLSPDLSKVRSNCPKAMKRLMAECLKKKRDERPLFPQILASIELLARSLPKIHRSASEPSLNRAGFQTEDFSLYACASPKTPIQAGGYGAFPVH
Test: biochemical
Test Parameters: B-Raf Alpha screen comparable to the described assay; phosphorylation of biotinylated HIS-MEK-AVI; results may be an average of two or more results
Below is a list of entries, each paired with its recorded pIC50 value.
Note on pIC50: it is the negative log10 of concentration, concentration in mol/L.

Recorded results for 4 compounds are shown here.
1) FC(F)(F)Oc1ccc(Nc2ncc3cc(-c4ccncc4)ccc3n2)cc1: 5.96
2) Cc1cc(Nc2ncc3cc(-c4ccncc4)ccc3n2)ccc1C(C)N(C)P(C)(C)=O (centres unmarked): 6.92
3) CN(C)C1CCN(C(=O)c2ccc(Nc3ncc4cc(-c5ccncc5)ccc4n3)cc2)C1 (centres unmarked): 7.14
4) Cc1cc(Nc2ncc3cc(-c4ccncc4)ccc3n2)ccc1C(=O)NCCN1CCOCC1: 6.80

Here's the next entry for you.
Given item `CS(=O)(=O)c1ccc(Nc2ncc3cc(-c4ccncc4)ccc3n2)cc1` , the value recorded as its pIC50 is 7.21

----------
Below is a list of entries, each paired with its recorded log10 of IC50 value.
Assay Target: Mutant B-Raf (V600E) enzyme (MT B-Raf) (Homo sapiens, UniProt P15056, V600E)
Test: biochemical
Test Parameters: B-Raf Alpha screen comparable to the described assay; phosphorylation of biotinylated HIS-MEK-AVI; results may be an average of two or more results
Kindly note that the scale is log10 and the underlying IC50 is in nM.

Given item `CNC(=O)c1ccc(Nc2ncc3cc(-c4ccncc4)ccc3n2)cc1` , the value recorded as its log10 of IC50 is 1.90

Given item `c1cc(-c2ccc3nc(Nc4ccc5c(c4)OCO5)ncc3c2)ccn1` , the value recorded as its log10 of IC50 is 2.62

----------
Below is a list of entries, each paired with its recorded pIC50 value.
Assay Target: Mutant B-Raf (V600E) enzyme (MT B-Raf) (Homo sapiens, UniProt P15056, V600E)
Test: biochemical
Test Parameters: B-Raf Alpha screen comparable to the described assay; phosphorylation of biotinylated HIS-MEK-AVI; results may be an average of two or more results
Note on pIC50: it is the negative log10 of concentration, concentration in mol/L.

Recorded results for 6 compounds are shown here.
1) CCCNC(C)c1ccc(Nc2ncc3cc(-c4ccncc4)ccc3n2)cc1 (single isomer, unassigned) [Example 141]: 7.47
2) COc1cc(Nc2ncc3cc(-c4ccncc4)ccc3n2)ccc1C: 5.66
3) CCCNC(C)c1ccc(Nc2ncc3cc(-c4ccncc4)ccc3n2)cc1 (single isomer, unassigned) [Example 142]: 7.92
4) O=C(NCCN1CCCCC1)c1ccc(Nc2ncc3cc(-c4ccncc4)ccc3n2)cc1: 7.06
5) CC(c1ccc(Nc2ncc3cc(-c4ccncc4)ccc3n2)cc1)N(C)C (centres unmarked) [Example 133]: 7.34
6) O=S(=O)(c1cccc(Nc2ncc3cc(-c4ccncc4)ccc3n2)c1)N1CCCCC1: 6.00

Here's the next entry for you.
Given item O=C(NCC1CCCO1)c1ccc(Nc2ncc3cc(-c4ccncc4)ccc3n2)cc1 (centres unmarked) , the value recorded as its pIC50 is 6.68

----------
Assay Target: Mutant B-Raf (V600E) enzyme (MT B-Raf) (Homo sapiens, UniProt P15056, V600E)
Test: biochemical
Value Kind: IC50 (nM)
Numbers only here, please. The scale is nM.

Given item Cc1cc(Nc2ncc3cc(-c4ccncc4)ccc3n2)ccc1C(=O)N(C)C [Example 50] , the value recorded as its IC50 is 150

----------
Assay Target: Mutant B-Raf (V600E) enzyme (MT B-Raf) (Homo sapiens, UniProt P15056, V600E)
Test: biochemical
Test Parameters: B-Raf Alpha screen comparable to the described assay; phosphorylation of biotinylated HIS-MEK-AVI; results may be an average of two or more results
Below is a list of entries, each paired with its recorded log10 of IC50 value.
Kindly note that the scale is log10 and the underlying IC50 is in nM.

1) CN(CCO)Cc1ccc(Nc2ncc3cc(-c4ccncc4)ccc3n2)cc1: 1.38
2) O=C(NCC1CCNCC1)c1ccc(Nc2ncc3cc(-c4ccncc4)ccc3n2)cc1: 1.34
3) CCCNC(C)c1ccc(Nc2ncc3cc(-c4ccncc4)ccc3n2)cc1 (stereo not drawn) [Example 138]: 1.67
4) CC(O)CCNC(C)c1ccc(Nc2ncc3cc(-c4ccncc4)ccc3n2)cc1 (stereo not drawn): 1.41
5) Cn1ccc(Nc2ncc3cc(-c4ccncc4)ccc3n2)n1: 3.26
6) O=C(NCC1CCCN1)c1ccc(Nc2ncc3cc(-c4ccncc4)ccc3n2)cc1 (stereo not drawn): 2.18

Given item `CCCCNS(=O)(=O)c1cccc(Nc2ncc3cc(-c4ccncc4)ccc3n2)c1` , the value recorded as its log10 of IC50 is 2.91

Given item `c1cc(-c2ccc3nc(Nc4ccc5c(c4)OCCO5)ncc3c2)ccn1` , the value recorded as its log10 of IC50 is 2.48

Given item O=C(NCC(O)CO)c1ccc(Nc2ncc3cc(-c4ccncc4)ccc3n2)cc1 (stereo not drawn) , the value recorded as its log10 of IC50 is 2.00

----------
Assay Target: Mutant B-Raf (V600E) enzyme (MT B-Raf) (Homo sapiens, UniProt P15056, V600E)
Test: biochemical
Test Parameters: B-Raf Alpha screen comparable to the described assay; phosphorylation of biotinylated HIS-MEK-AVI; results may be an average of two or more results
Below is a list of entries, each paired with its recorded IC50 value.
Numbers only here, please. The scale is nM.

Recorded results for 5 compounds are shown here.
1. CN1CCCC1CCNCc1ccc(Nc2ncc3cc(-c4ccncc4)ccc3n2)cc1 (stereo not drawn) [Example 72]: 260
2. CNCCNC(=O)c1ccnc(Nc2ncc3cc(-c4ccncc4)ccc3n2)c1 [Example 66]: 700
3. CC(NCCO)c1ccc(Nc2ncc3cc(-c4ccncc4)ccc3n2)cc1 (stereo not drawn) [Example 57]: 29
4. CC(C)(C)OC(=O)NCCCNC(=O)c1ccc(Nc2ncc3cc(-c4ccncc4)ccc3n2)cc1 [Example 26]: 550
5. c1cc(-c2ccc3nc(Nc4ccc(N5CCOCC5)cc4)ncc3c2)ccn1 [Example 79]: 130

Hey, Mutant B-Raf (V600E) enzyme (MT B-Raf) (Homo sapiens, UniProt P15056, V600E) data for CC(c1ccc(Nc2ncc3cc(-c4ccncc4)ccc3n2)cc1)N(C)CCCO (stereo not drawn) [Example 135] : IC50 came out at 29

Hey, Mutant B-Raf (V600E) enzyme (MT B-Raf) (Homo sapiens, UniProt P15056, V600E) data for CNCCNC(=O)c1cccc(Nc2ncc3cc(-c4ccncc4)ccc3n2)n1 [Example 65] : IC50 came out at 1000

Hey, Mutant B-Raf (V600E) enzyme (MT B-Raf) (Homo sapiens, UniProt P15056, V600E) data for COCCCNC(C)c1ccc(Nc2ncc3cc(-c4ccncc4)ccc3n2)cc1 (stereo not drawn) [Example 55] : IC50 came out at 22

Hey, Mutant B-Raf (V600E) enzyme (MT B-Raf) (Homo sapiens, UniProt P15056, V600E) data for CN(C)CCCNC(=O)c1ccc(Nc2ncc3cc(-c4ccncc4)ccc3n2)cc1 [Example 31] : IC50 came out at 82

----------
Assay Target: Mutant B-Raf (V600E) enzyme (MT B-Raf) (Homo sapiens, UniProt P15056, V600E)
Test: biochemical
Test Parameters: B-Raf Alpha screen comparable to the described assay; phosphorylation of biotinylated HIS-MEK-AVI; results may be an average of two or more results
Value Kind: IC50 (µM)
Numbers only here, please. The scale is µM.

Recorded results for 6 compounds are shown here.
1. O=C(NCCCn1ccnc1)c1ccc(Nc2ncc3cc(-c4ccncc4)ccc3n2)cc1: 0.11
2. NCCNC(=O)c1ccc(Nc2ncc3cc(-c4ccncc4)ccc3n2)cc1: 0.098
3. CNCCCNC(=O)c1ccc(Nc2ncc3cc(-c4ccncc4)ccc3n2)cc1: 0.069
4. Cc1ccc(Nc2ncc3cc(-c4ccncc4)ccc3n2)cc1: 23
5. CC(O)CCNC(=O)c1ccc(Nc2ncc3cc(-c4ccncc4)ccc3n2)cc1 (stereo not drawn): 0.27
6. CC(NCC1CC1)c1ccc(Nc2ncc3cc(-c4ccncc4)ccc3n2)cc1 (stereo not drawn): 0.037

Given item `O=C(NCCCN1CCCC1=O)c1ccc(Nc2ncc3cc(-c4ccncc4)ccc3n2)cc1` , the value recorded as its IC50 is 0.2

Given item `COCCNC(=O)c1ccc(Nc2ncc3cc(-c4ccncc4F)ccc3n2)cc1` , the value recorded as its IC50 is 0.27

Given item `COc1cc(Nc2ncc3cc(-c4ccncc4)ccc3n2)cc(C(F)(F)F)c1` , the value recorded as its IC50 is 1.7

----------
Assay Target: Mutant B-Raf (V600E) enzyme (MT B-Raf) (Homo sapiens, UniProt P15056, V600E)
Test: biochemical
Test Parameters: B-Raf Alpha screen comparable to the described assay; phosphorylation of biotinylated HIS-MEK-AVI; results may be an average of two or more results
Value Kind: pIC50
Note on pIC50: it is the negative log10 of concentration, concentration in mol/L.

Recorded results for 4 compounds are shown here.
1) c1cc(Nc2ncc3cc(-c4ccncc4)ccc3n2)cc(N2CCOCC2)c1: 6.41
2) COCC(C)NC(=O)c1ccc(Nc2ncc3cc(-c4ccncc4)ccc3n2)cc1 (stereo not drawn): 6.89
3) CN1CCCN(C(=O)c2ccc(Nc3ncc4cc(-c5ccncc5)ccc4n3)cc2)CC1: 7.20
4) c1cc(-c2ccc3nc(Nc4ccc(N5CCOCC5)nc4)ncc3c2)ccn1: 6.96

Given item `O=C1CCCN1c1ccc(Nc2ncc3cc(-c4ccncc4)ccc3n2)cc1` , the value recorded as its pIC50 is 6.92

Given item O=C(NCC1CCCCN1)c1ccc(Nc2ncc3cc(-c4ccncc4)ccc3n2)cc1 (stereo not drawn) , the value recorded as its pIC50 is 6.96

Given item `CN(C)c1ccc(Nc2ncc3cc(-c4ccncc4)ccc3n2)cc1` , the value recorded as its pIC50 is 5.72

Given item `CN1CCN(Cc2ccc(Nc3ncc4cc(-c5ccncc5)ccc4n3)cc2)CC1` , the value recorded as its pIC50 is 7.14

Given item `CCN(CCO)c1ccc(Nc2ncc3cc(-c4ccncc4)ccc3n2)cc1` , the value recorded as its pIC50 is 7.04

Given item CC(NCCCO)c1ccc(Nc2ncc3cc(-c4ccncc4)ccc3n2)cc1 (stereo not drawn) , the value recorded as its pIC50 is 7.44

Given item CC(c1ccc(Nc2ncc3cc(-c4ccncc4)ccc3n2)cc1)N(C)CCO (stereo not drawn) , the value recorded as its pIC50 is 7.46

Given item `c1cc(-c2ccc3nc(Nc4ccc(OCCN5CCOCC5)cc4)ncc3c2)ccn1` , the value recorded as its pIC50 is 6.80

Given item `Cc1cccc(Nc2ncc3cc(-c4ccncc4)ccc3n2)c1` , the value recorded as its pIC50 is 6.20

Given item `NCCCNC(=O)c1ccc(Nc2ncc3cc(-c4ccncc4)ccc3n2)cc1` , the value recorded as its pIC50 is 7.03

Given item `O=S(=O)(c1ccc(Nc2ncc3cc(-c4ccncc4)ccc3n2)cc1)C(F)F` , the value recorded as its pIC50 is 6.00

Given item `O=C(NCCCN1CCOCC1)c1ccc(Nc2ncc3cc(-c4ccncc4)ccc3n2)cc1` , the value recorded as its pIC50 is 7.04

Given item `O=C(NCCN1CCOCC1)c1ccc(Nc2ncc3cc(-c4ccncc4)ccc3n2)cc1` , the value recorded as its pIC50 is 6.74

Given item `c1cc(-c2ccc3nc(Nc4ccc(CNCCN5CCOCC5)cc4)ncc3c2)ccn1` , the value recorded as its pIC50 is 7.13
